# testedOn: human NaV1.8 (Homo sapiens, UniProt Q9Y5Y9)
# Construct: The following NaV1.8 recombinant cell line was used for recordings: HEK-NaV1.8 (NM 006514.1)
# Sequence (Q9Y5Y9 whole entry): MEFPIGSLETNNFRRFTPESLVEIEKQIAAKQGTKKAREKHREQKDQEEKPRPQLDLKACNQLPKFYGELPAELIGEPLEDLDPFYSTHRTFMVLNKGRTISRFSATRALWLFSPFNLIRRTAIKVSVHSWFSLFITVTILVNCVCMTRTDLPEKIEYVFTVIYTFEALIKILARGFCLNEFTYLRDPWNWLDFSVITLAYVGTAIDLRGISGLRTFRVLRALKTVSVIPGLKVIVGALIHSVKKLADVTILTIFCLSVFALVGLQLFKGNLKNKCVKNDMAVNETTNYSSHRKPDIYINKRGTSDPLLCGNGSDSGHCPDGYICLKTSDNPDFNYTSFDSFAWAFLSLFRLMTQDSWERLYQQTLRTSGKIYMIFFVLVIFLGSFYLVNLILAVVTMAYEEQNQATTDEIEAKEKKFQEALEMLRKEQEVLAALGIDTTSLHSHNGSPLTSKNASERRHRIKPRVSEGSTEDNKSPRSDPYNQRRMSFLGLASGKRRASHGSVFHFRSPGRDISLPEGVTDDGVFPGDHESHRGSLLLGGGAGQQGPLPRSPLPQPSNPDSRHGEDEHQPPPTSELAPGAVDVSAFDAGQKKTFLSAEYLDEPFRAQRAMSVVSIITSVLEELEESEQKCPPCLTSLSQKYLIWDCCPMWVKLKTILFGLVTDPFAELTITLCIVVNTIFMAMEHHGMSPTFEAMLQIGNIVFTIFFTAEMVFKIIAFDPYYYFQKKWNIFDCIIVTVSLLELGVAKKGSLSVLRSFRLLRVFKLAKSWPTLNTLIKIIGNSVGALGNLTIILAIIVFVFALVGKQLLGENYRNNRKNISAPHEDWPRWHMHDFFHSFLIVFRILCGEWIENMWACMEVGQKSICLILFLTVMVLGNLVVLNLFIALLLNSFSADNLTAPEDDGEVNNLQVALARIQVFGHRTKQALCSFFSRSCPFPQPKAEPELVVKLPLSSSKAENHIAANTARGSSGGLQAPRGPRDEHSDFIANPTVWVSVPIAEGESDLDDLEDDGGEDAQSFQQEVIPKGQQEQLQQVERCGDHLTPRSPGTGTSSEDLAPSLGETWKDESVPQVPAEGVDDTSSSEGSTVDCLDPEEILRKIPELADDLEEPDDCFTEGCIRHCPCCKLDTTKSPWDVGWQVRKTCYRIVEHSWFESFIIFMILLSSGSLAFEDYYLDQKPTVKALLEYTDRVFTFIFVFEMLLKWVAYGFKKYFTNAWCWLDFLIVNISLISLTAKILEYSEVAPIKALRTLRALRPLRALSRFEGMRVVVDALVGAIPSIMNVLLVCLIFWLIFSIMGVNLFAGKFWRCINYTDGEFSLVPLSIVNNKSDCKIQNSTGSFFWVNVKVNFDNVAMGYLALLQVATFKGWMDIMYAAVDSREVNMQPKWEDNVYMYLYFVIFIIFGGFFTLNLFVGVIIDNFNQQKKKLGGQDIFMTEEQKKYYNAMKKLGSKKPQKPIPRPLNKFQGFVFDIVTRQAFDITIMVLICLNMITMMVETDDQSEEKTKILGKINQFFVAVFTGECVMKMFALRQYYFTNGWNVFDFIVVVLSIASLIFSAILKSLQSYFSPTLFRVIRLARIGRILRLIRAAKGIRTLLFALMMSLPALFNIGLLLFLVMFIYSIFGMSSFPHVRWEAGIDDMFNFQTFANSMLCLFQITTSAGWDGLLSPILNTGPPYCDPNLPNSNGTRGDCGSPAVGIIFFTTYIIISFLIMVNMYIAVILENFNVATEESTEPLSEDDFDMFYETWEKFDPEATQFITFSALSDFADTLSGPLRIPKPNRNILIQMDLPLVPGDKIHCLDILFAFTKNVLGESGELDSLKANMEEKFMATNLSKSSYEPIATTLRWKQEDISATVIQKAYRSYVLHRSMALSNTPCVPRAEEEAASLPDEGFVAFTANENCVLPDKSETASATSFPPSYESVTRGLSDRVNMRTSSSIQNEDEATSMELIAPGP
# Sequence (Q9NY72 23-215 partner): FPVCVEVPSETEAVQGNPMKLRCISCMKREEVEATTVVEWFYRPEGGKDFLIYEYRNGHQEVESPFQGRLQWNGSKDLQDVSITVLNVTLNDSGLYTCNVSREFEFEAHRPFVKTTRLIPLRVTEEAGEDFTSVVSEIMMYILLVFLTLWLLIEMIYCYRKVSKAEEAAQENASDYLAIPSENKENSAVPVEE
# protocolSummary: Electrophysiology: automated whole-cell voltage-clamp (patch clamp, Qube384) recordings of sodium currents in HEK-NaV1.8 cells
# settings: potency data either taken from inactivated or resting state, read-out: Potency category (human NaV1.8 IC50)
testReadout: IC50

CS(=O)(=O)c1cccc(NC(=O)c2cc(C(F)F)nn2CC2CCCCC2)c1 = 100 to 1000 nM
NC(=O)c1cc(NC(=O)c2c(C(F)(F)F)c(C3CC3)nn2CC2CC(C(F)F)C2)ccn1 (single isomer, unassigned) [SC-221a] = ≤ 100 nM
Cc1c(Cl)nn(CC2CCC(F)(F)CC2)c1C(=O)Nc1ccnc(C(N)=O)c1 = 100 to 1000 nM
CS(=O)(=O)c1cccc(NC(=O)c2c(C(F)(F)F)cnn2CC2(F)CCCCC2)c1 = 100 to 1000 nM
Cc1c(C(C)(F)F)nn(CC2(C)CCCCO2)c1C(=O)Nc1ccnc(S(N)(=O)=O)c1 (single isomer, unassigned) [SC-312a] = 100 to 1000 nM
CS(=O)(=O)c1cccc(NC(=O)c2c(C#N)cnn2CC2CCCCC2)c1 = 100 to 1000 nM
CS(=O)(=O)c1cc(NC(=O)c2c(C(F)(F)F)c(C3CC3)nn2CC2CCCCO2)ccn1 (single isomer, unassigned) [SC-259a] = ≤ 100 nM
NS(=O)(=O)c1cccc(NC(=O)c2c(C(F)(F)F)c(C(F)F)nn2CC2CCC(F)(F)C2)c1 (stereo not shown) = ≤ 100 nM
Cc1c(C(C)(F)F)nn(C[C@@H]2CC[C@H]2C(F)(F)F)c1C(=O)Nc1ccnc(C(N)=O)c1 (single isomer, unassigned) [SC-315b] = ≤ 100 nM
Cc1c(C(C)(F)F)nn(CC2C[C@H]2C)c1C(=O)Nc1ccnc(S(N)(=O)=O)c1 (stereo partly shown) = ≤ 100 nM
Cc1c(C(F)(F)C(F)(F)F)nn(CC2CCC2(F)F)c1C(=O)Nc1ccnc(C(N)=O)c1 (single isomer, unassigned) [SC-278a] = ≤ 100 nM
CCc1nn(CC2CC(F)(F)C2)c(C(=O)Nc2ccnc(C(N)=O)c2)c1C(F)(F)F = ≤ 100 nM
CS(=O)(=O)c1cccc(NC(=O)c2cc(C3CC3)nn2CC2CCCCC2)c1 = 100 to 1000 nM
